assayed system: Adenosine receptor A2a (Homo sapiens, UniProt P29274)
Sequence (P29274 whole entry): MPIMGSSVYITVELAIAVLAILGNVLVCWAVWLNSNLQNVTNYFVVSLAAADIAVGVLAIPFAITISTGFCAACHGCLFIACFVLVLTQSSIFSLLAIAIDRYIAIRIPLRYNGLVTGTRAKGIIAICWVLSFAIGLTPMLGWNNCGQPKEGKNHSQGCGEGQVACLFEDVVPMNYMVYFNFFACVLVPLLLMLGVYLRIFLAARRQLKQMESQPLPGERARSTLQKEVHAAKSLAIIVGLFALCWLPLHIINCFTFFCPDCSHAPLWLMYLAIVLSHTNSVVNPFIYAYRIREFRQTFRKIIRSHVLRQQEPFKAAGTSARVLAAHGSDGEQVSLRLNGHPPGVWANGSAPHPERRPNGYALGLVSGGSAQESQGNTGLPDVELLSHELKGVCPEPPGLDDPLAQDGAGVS
assay text: Displacement of [3H]MSX-2 from human recombinant adenosine A2A receptor expressed in CHO cells
Ki values for the molecules below.
Numbers only; they are read as nM.

Observe how each entry below is paired with its result.
Exercise: Entry under review: `Cn1c(=O)c2c(nc3n2CCCN3CC2CC2)n(C)c1=O` . Reported Ki?
Solution: 417

Exercise: Lookup `Cn1c(=O)c2c(nc3n2CCCN3[C@H]2CC[C@H](O)CC2)n(C)c1=O`
Solution: 19000

Exercise: Lookup `Cn1c(=O)c2c(nc3n2CCN3C2CCCCCCC2)n(C)c1=O`
Solution: 306

Exercise: Lookup `Cn1c(=O)c2c(nc3n2CCCN3C2CCCCCC2)n(C)c1=O`
Solution: 1160

Exercise: Lookup `Cn1c(=O)c2c(nc3n2CCCN3C2CCCCC2)n(C)c1=O`
Solution: 1610

More entries:
Exercise: Entry under review: `Cn1c(=O)c2c(nc3n2CCCN3C2CCC2)n(C)c1=O` . Reported Ki?
Solution: 847

Exercise: Lookup `Cn1c(=O)c2c(nc3n2CCCN3CCC2=CCCCC2)n(C)c1=O`
Solution: 933

Exercise: Lookup Cn1c(=O)c2c(nc3n2CCN3C2CCC(O)CC2)n(C)c1=O (mixture of isomers)
Solution: 3270

Exercise: Lookup `Cn1c(=O)c2c(nc3n2CCCCN3C2CCCCCCC2)n(C)c1=O`
Solution: 2400

Exercise: Lookup `Cn1c(=O)c2c(nc3n2CCN3C2CCCCC2)n(C)c1=O`
Solution: 1610

Exercise: Lookup `CC(=O)O[C@H]1CC[C@H](N2CCCn3c2nc2c3c(=O)n(C)c(=O)n2C)CC1`
Solution: 21900

Exercise: Lookup `Cn1c(=O)c2c(nc3n2CCCN3C2CCCCCCC2)n(C)c1=O`
Solution: 1530

---

assayed system: Adenosine receptor A2a (Rattus norvegicus, UniProt P30543)
Sequence (P30543 whole entry): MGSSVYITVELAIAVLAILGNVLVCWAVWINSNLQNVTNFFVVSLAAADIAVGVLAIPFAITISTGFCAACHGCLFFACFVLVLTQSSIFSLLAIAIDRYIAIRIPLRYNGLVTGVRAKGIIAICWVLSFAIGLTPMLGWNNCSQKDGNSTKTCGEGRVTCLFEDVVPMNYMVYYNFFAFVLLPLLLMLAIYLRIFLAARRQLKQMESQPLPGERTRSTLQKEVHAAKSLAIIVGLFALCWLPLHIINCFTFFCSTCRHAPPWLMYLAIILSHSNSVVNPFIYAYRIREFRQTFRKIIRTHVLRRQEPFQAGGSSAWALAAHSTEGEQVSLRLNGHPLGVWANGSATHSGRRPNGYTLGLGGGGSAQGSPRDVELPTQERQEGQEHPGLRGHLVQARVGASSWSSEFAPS
assay text: Displacement of [3H]MSX-2 from rat adenosine A2A receptor in presence of 100 mM NaCl
measure: pIC50
Note: pIC50 values are expressed as the negative base-10 logarithm of concentration in M.

Exercise: Entry under review: CC1CCC(N2CCCn3c2nc2c3c(=O)n(C)c(=O)n2C)CC1 (mixture of isomers) . Reported pIC50?
Solution: 6.60

---

Species on record: Rattus norvegicus
assay text: Selectivity ratio of Ki for adenosine A1 receptor in rat brain cortical membrane to Ki for adenosine A2A receptor in rat brain striatal membrane
Assay type: cell membranes
measure: Ratio Ki
// return a plain number; no unit text

Observe how each entry below is paired with its result.
Exercise: Entry under review: `Cn1c(=O)c2c(nc3n2CCCN3C2CCCC2)n(C)c1=O` . Reported Ratio Ki?
Solution: 5

Exercise: Lookup CC(=O)OC1CCC(N2CCCCn3c2nc2c3c(=O)n(C)c(=O)n2C)CC1 (mixture of isomers)
Solution: 3

We next turn to a different molecule, shown below.
Exercise: Entry under review: `Cn1c(=O)c2c(nc3n2CCCCN3C2CCCC2)n(C)c1=O` . Reported Ratio Ki?
Solution: 4

---

System: Rattus norvegicus
assay text: Neurotoxicity in Sprague-Dawley albino rat assessed as minimal motor impairment at 30 mg/kg, po after 0.5 hrs by rotorod test
Type: toxicity, organism-based
Design: dose 30 mg/kg, route oral
experimental parameters: in vivo
measure: Activity

Observe how each entry below is paired with its result.
Exercise: Entry under review: CC1CCC(N2CCCCn3c2nc2c3c(=O)n(C)c(=O)n2C)CC1 (mixture of isomers) . Reported Activity?
Solution: Non-toxic

Exercise: Lookup `Cn1c(=O)c2c(nc3n2CCCCN3CC2CCCCC2)n(C)c1=O`
Solution: Non-toxic

Exercise: Lookup `Cn1c(=O)c2c(nc3n2CCCN3CC2CC2)n(C)c1=O`
Solution: Non-toxic

Exercise: Lookup `Cn1c(=O)c2c(nc3n2CCCN3CC2CCCCC2)n(C)c1=O`
Solution: Non-toxic

We next turn to a different molecule, shown below.
Exercise: Entry under review: `C[C@@H](C1CCCCC1)N1CCCn2c1nc1c2c(=O)n(C)c(=O)n1C` . Reported Activity?
Solution: Non-toxic

---

assayed system: Adenosine receptor A3 (Homo sapiens, UniProt P0DMS8)
Sequence (P0DMS8 whole entry): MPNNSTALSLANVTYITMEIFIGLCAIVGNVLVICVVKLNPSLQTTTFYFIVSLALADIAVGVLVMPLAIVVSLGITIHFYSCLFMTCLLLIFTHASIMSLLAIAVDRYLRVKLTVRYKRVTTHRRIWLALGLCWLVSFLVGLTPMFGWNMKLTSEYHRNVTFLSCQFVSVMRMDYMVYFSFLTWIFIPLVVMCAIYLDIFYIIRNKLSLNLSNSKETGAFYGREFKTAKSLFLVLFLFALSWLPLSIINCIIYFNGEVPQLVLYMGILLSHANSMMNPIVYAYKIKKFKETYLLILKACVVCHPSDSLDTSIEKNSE
assay text: Displacement of [125I]AB-MECA from human adenosine A3 receptor expressed in HEK293 cells
Type: cell-based
pKi: −log10 of the molar value.
measure: pKi

Exercise: Entry under review: CCCn1c(=O)c2[nH]c(C3C4CC5OC(=O)C3C5C4)nc2n(CCC)c1=O (stereo unspecified) . Reported pKi?
Solution: < 5.00

---

Organism: Rattus norvegicus
assay text: Selectivity ratio of Ki for adenosine A1 receptor in rat brain cortical membrane to Ki for adenosine A2A receptor in rat brain striatal membrane
Type: cell membranes
measure: Ratio Ki

Exercise: Entry under review: `Cn1c(=O)c2c(nc3n2CCCN3CC2CCCCC2)n(C)c1=O` . Reported Ratio Ki?
Solution: 4

Exercise: Lookup `Cn1c(=O)c2c(nc3n2CCN3CC2CCCCC2)n(C)c1=O`
Solution: > 13

Exercise: Lookup `C[C@H](C1CCCCC1)N1CCCn2c1nc1c2c(=O)n(C)c(=O)n1C`
Solution: 6

Exercise: Lookup `Cn1c(=O)c2c(nc3n2CCN3CCC2=CCCCC2)n(C)c1=O`
Solution: 1

Exercise: Lookup CC1CCC(N2CCCn3c2nc2c3c(=O)n(C)c(=O)n2C)CC1 (mixture of isomers)
Solution: > 100

More entries:
Exercise: Entry under review: `Cn1c(=O)c2c(nc3n2CCCN3C2CCCCC2)n(C)c1=O` . Reported Ratio Ki?
Solution: > 31

Exercise: Lookup `Cn1c(=O)c2c(nc3n2CCCN3C2CCC2)n(C)c1=O`
Solution: > 5

---

assayed system: Adenosine receptor A2b (Homo sapiens) (UniProt P29275)
Sequence (P29275 whole entry): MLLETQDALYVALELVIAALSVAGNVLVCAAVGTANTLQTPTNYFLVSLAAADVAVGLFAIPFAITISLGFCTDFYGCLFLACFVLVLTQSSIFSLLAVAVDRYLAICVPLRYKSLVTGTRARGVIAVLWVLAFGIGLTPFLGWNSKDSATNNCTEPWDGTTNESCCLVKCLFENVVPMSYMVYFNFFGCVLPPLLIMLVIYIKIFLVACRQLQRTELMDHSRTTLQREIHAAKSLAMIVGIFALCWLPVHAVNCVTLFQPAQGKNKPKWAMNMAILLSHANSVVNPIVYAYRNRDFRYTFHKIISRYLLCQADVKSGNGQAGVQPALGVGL
assay text: Displacement of [3H]ZM241385 from human adenosine A2B receptor expressed in CHO cells at 10 uM
Type: cell-based
measure: inhibition (%)
Numbers only; they are read as %.

Observe how each entry below is paired with its result.
Exercise: Entry under review: CC(=O)OC1CCC(N2CCCCn3c2nc2c3c(=O)n(C)c(=O)n2C)CC1 (mixture of isomers) . Reported inhibition?
Solution: 29

Exercise: Lookup `Cn1c(=O)c2c(nc3n2CCCN3C2CCCCCCC2)n(C)c1=O`
Solution: 32

Exercise: Lookup CC1CCC(N2CCCn3c2nc2c3c(=O)n(C)c(=O)n2C)CC1 (mixture of isomers)
Solution: 16

More entries:
Exercise: Entry under review: Cn1c(=O)c2c(nc3n2CCN3C2CCC(O)CC2)n(C)c1=O (mixture of isomers) . Reported inhibition?
Solution: 24

---

System: Rattus norvegicus
assay text: Anticonvulsant activity in Sprague-Dawley albino rat assessed as protection against subcutaneous pentylenetetrazole-induced seizures at 50 mg/kg, po after 0.25 hrs
Type: functional, organism-based
Design: dose 50 mg/kg
Active and inactive are the calls of the source. No cut-off for these calls is given here.
Assign a class; possible classes are active, inactive

Take a look at these entries with their results.
Exercise: GET /call?item= CC1CCC(N2CCCCn3c2nc2c3c(=O)n(C)c(=O)n2C)CC1 (mixture of isomers) returns the recorded outcome of this test.
Solution: inactive

Exercise: Lookup `Cn1c(=O)c2c(nc3n2CCCN3CC2CCCCC2)n(C)c1=O`
Solution: active

Exercise: Lookup `Cn1c(=O)c2c(nc3n2CCCCN3CC2CCCCC2)n(C)c1=O`
Solution: inactive

Exercise: Lookup `Cn1c(=O)c2c(nc3n2CCCN3CC2CC2)n(C)c1=O`
Solution: inactive

Consider the record given below.
Exercise: GET /call?item= `C[C@@H](C1CCCCC1)N1CCCn2c1nc1c2c(=O)n(C)c(=O)n1C` returns the recorded outcome of this test.
Solution: inactive

---

System: Mus musculus
assay text: Neurotoxicity in F1 albino mouse assessed as minimal motor impairment at 300 mg/kg, ip after 4 hrs by rotorod test
Assay type: toxicity, organism-based
Set-up: dose 300 mg/kg, route intraperitoneal
experimental parameters: in vivo
measure: Activity

Observe how each entry below is paired with its result.
Exercise: Missing value: Activity, Mus musculus, entry `Cn1c(=O)c2c(nc3n2CCN3CCC2=CCCCC2)n(C)c1=O` . Fill in?
Solution: Toxic

Exercise: Lookup CC(=O)OC1CCC(N2CCCCn3c2nc2c3c(=O)n(C)c(=O)n2C)CC1 (mixture of isomers)
Solution: Non-toxic

Exercise: Lookup `Cn1c(=O)c2c(nc3n2CCCN3C2CCCCCC2)n(C)c1=O`
Solution: Non-toxic

Exercise: Lookup `Cn1c(=O)c2c(nc3n2CCN3C2CCCCCCC2)n(C)c1=O`
Solution: Non-toxic

More entries:
Exercise: Missing value: Activity, Mus musculus, entry `Cn1c(=O)c2c(nc3n2CCN3CC2CCCCC2)n(C)c1=O` . Fill in?
Solution: Non-toxic

Exercise: Lookup `Cn1c(=O)c2c(nc3n2CCCN3[C@H]2CC[C@H](O)CC2)n(C)c1=O`
Solution: Non-toxic

Exercise: Lookup `Cn1c(=O)c2c(nc3n2CCCCN3CC2CCCCC2)n(C)c1=O`
Solution: Non-toxic

Exercise: Lookup CC1CCCCC1N1CCCCn2c1nc1c2c(=O)n(C)c(=O)n1C (mixture of isomers)
Solution: Non-toxic

Exercise: Lookup Cn1c(=O)c2c(nc3n2CCCN3C2CCC(O)CC2)n(C)c1=O (mixture of isomers)
Solution: Non-toxic

Exercise: Lookup CC1CCC(N2CCCn3c2nc2c3c(=O)n(C)c(=O)n2C)CC1 (mixture of isomers)
Solution: Non-toxic
